For each record, write down the corresponding log10 of GI50.
Use the decimal logarithm of GI50 (nM).

Fill in: MV-4-11 cells log10 of GI50 for Cc1cc(N2C(=O)c3c(c(C4CC4)nn3-c3ccnn3C)C2c2ccc(Cl)cc2)cn2c(C)nnc12 (stereo not drawn) = 1.27

Fill in: MV-4-11 cells log10 of GI50 for `CNc1cc(N2C(=O)c3c(c(C)nn3C3CC3)[C@H]2c2ccc(Cl)cc2)nn2c(C)nnc12` = 1.82

Fill in: MV-4-11 cells log10 of GI50 for Cc1n[nH]c2c1C(c1ccc(Cl)cc1F)N(c1cc(C)c3nnc(C)n3c1)C2=O (stereo not drawn) = 1.88

Fill in: MV-4-11 cells log10 of GI50 for Cc1nn(C2CC2)c2c1C(c1ccc(Cl)cc1)N(c1cc(C)c3nnc(C(F)F)n3n1)C2=O (stereo not drawn) = 1.38

Fill in: MV-4-11 cells log10 of GI50 for `COc1ncccc1-n1nc(C)c2c1C(=O)N(c1cc(C)c(=O)n(C)c1)[C@H]2c1ccc(Cl)cc1` = 3.35

Fill in: MV-4-11 cells log10 of GI50 for COc1ncc(-n2nc3c(c2C)C(c2ccc(Cl)cc2)N(c2cc(Cl)c(=O)n(C)c2)C3=O)c(OC)n1 (stereo not drawn) = 1.95

Fill in: MV-4-11 cells log10 of GI50 for COc1ncc(-n2nc(C)c3c2C(=O)N(c2cc(C)c(=O)n(C)c2)C3c2ccc(Cl)cc2)c(OC)n1 (racemic) = 1.99

Fill in: MV-4-11 cells log10 of GI50 for Cc1nn(C(C)C)c2c1C(c1ccc(Cl)cc1)N(c1cc(Cl)c(=O)n(C)c1)C2=O (stereo not drawn) = 1.83

Fill in: MV-4-11 cells log10 of GI50 for `COc1ncc(-n2nc(C)c3c2C(=O)N(c2cc(C)c(=O)n(C)c2)[C@@H]3c2ccc(Cl)cc2)c(OC)n1` = 1.61

Fill in: MV-4-11 cells log10 of GI50 for CCn1nc(C)c2c1C(=O)N(c1cc(C)c(=O)n(C)c1)C2c1ccc(Cl)cc1F (stereo not drawn) = 0.88

Fill in: MV-4-11 cells log10 of GI50 for Cc1cc(N2C(=O)c3c(c(CO)nn3C3CC3)C2c2ccc(Cl)cc2)cn2c(C)nnc12 (stereo not drawn) = 1.39

Fill in: MV-4-11 cells log10 of GI50 for Cc1nn(C2CC2)c2c1C(c1ccc(C(F)(F)F)cc1)N(c1cc(C)c(=O)n(C)c1)C2=O (stereo not drawn) = 1.83

Fill in: MV-4-11 cells log10 of GI50 for Cc1nn(C2CC2)c2c1C(c1ccc(Cl)cc1F)N(c1cc(C)c3nnc(C)n3c1)C2=O (stereo not drawn) = 1.45

Fill in: MV-4-11 cells log10 of GI50 for `Cc1cc(N2C(=O)c3nn(C4CC4)c(C)c3[C@H]2c2ccc(Cl)cc2)cn(C)c1=O` = 1.35

Fill in: MV-4-11 cells log10 of GI50 for `CCc1nn(C2CC2)c2c1[C@@H](c1ccc(Cl)cc1)N(c1cc(C)c3nnc(C)n3c1)C2=O` = 0.86
